# assay: in vivo
# measurement context: dog, topical or ocular, 14.5 mg/kg, TMAX, Median
endpoint: Tmax (h)
Unit h implied. Number only.

(Q) Determine from records and report Tmax for O=C(C1CCCCC1)N1CC(=O)N2CCc3ccccc3C2C1 (stereo not shown)
(A) 5

###

# assay: in vivo
# measurement context: dog, topical or ocular, 14.5 mg/kg, CMAX, Median
endpoint: Cmax (ng/mL)
Give the value, in units of ng/mL, as a plain number.

(Q) Return value of Cmax for input O=C(C1CCCCC1)N1CC(=O)N2CCc3ccccc3C2C1 (stereo not shown) , no commentary.
(A) 53.9

###

# assay: in vivo
# measurement context: dog, topical or ocular, 14.5 mg/kg, CMAX, Max
endpoint: Cmax (ng/mL)
Only the number, expressed in ng/mL, is required.

(Q) Dear colleague, please send me the reported Cmax for O=C(C1CCCCC1)N1CC(=O)N2CCc3ccccc3C2C1 (stereo not shown) when you can.
(A) 77.6

###

# assay: in vivo
# measurement context: dog, topical or ocular, 14.5 mg/kg, Tmax range
# Method: In a period not longer than 2 hours, all of the samples were sent to the Laboratory, where they were centrifuged, and their plasma separated and frozen to −20° C. until the samples were quantified.
endpoint: Tmax

(Q) Hello, please tell me recorded Tmax for this one: O=C(C1CCCCC1)N1CC(=O)N2CCc3ccccc3C2C1 (stereo not shown) [Praziquantel]
(A) 4 to 6 h
